- Assay Method Text: Half life in mouse at 1 mg/kg, iv
- Assay type: ADME, organism-based
- Stated Conditions: in vivo
Measured Endpoint: half-life
Report the figure along with its unit, number first.

Query C=C(C)C(=O)Nc1ccc(-c2c(-c3ccc(S4(=O)=NCCCCC4)cc3)c3c(N)ncnc3n2C)c(F)c1 (stereo unspecified) yields half-life of 52.2 min

---

- Test system: BaF3
- Assay Method Text: Antiproliferative activity against mouse BaF3 cells expressing FGFR2 incubated for 72 hrs by CCK-8 assay
- Type: functional, cell-based
- Stated Conditions: BaF3, 72 h
IC50 strictly under 10 nM means MET; at 10 nM or over means NOT MET.

Past entries and their recorded results:
Compound	Group Label
C=CC(=O)Nc1ccc(-c2c(-c3ccc(S(=N)(=O)c4ccccc4)cc3)c3c(N)ncnc3n2C)cc1 (stereo not drawn)	MET
C=CC(=O)Nc1ccc(-c2c(-c3ccc(S(=N)(=O)C4CCC4)cc3)c3c(N)ncnc3n2C)cc1 (stereo not drawn)	NOT MET
C=C(C)C(=O)Nc1ccc(-c2c(-c3ccc(S4(=O)=NCCCCC4)cc3)c3c(N)ncnc3n2C)c(F)c1 (stereo not drawn)	MET

**Q:** Quick check: IC50 of C=CC(=O)Nc1ccc(-c2c(-c3ccc(S(=N)(=O)CC(C)C)cc3)c3c(N)ncnc3n2C)cc1 (stereo not drawn) under 10 nM?
**A:** NOT MET

**Q:** Quick check: IC50 of C=C(C)C(=O)Nc1ccc(-c2c(-c3ccc(Oc4nccc(C)n4)c(F)c3)c3c(N)ncnc3n2C)cc1 under 10 nM?
**A:** MET

**Q:** Quick check: IC50 of C=CC(=O)Nc1ccc(-c2c(-c3ccc(S(=N)(=O)C4CC4)cc3)c3c(N)ncnc3n2C)cc1 (stereo not drawn) under 10 nM?
**A:** NOT MET

**Q:** Quick check: IC50 of C=CC(=O)Nc1ccc(-c2c(-c3ccc(S(C)(=O)=NC)cc3)c3c(N)ncnc3n2C)cc1 (stereo not drawn) under 10 nM?
**A:** NOT MET

**Q:** Quick check: IC50 of C=CC(=O)Nc1ccc(-c2c(-c3ccc(S4(=O)=NCCCC4)cc3)c3c(N)ncnc3n2C)cc1 (stereo not drawn) under 10 nM?
**A:** NOT MET
